- procedure text: Inhibition of Porphyromonas gingivalis recombinant SerB653 phosphatase expressed in Escherichia coli BL21 using phosphoserine as substrate after 1 hr by malachite green colorimetric assay
pIC50: −log10 of the molar value.
met means recorded pIC50 is 5 or above; not met means it is below 5.

Please review the entries below; each comes with its answer.
# smiles input, class
records = [
    ("CCC(=O)c1c(Nc2cc(Cl)cc(Cl)c2)[nH]c2c(Cl)ccc([N+](=O)[O-])c2c1=O", "met"),
    ("CC(=O)c1c(Nc2ccc([N+](=O)[O-])cc2)[nH]c2c([N+](=O)[O-])cc(Cl)cc2c1=O", "not met"),
]

# evaluate next
**Query** Quick check: does CC(C)CC(=O)c1c(Nc2cc(Cl)ccc2Cl)[nH]c2c(Cl)ccc([N+](=O)[O-])c2c1=O have pIC50 greater than or equal to 5?
**Result** not met

====

// reported inhibition per item
- System: Porphyromonas gingivalis
- procedure text: Inhibition of Porphyromonas gingivalis recombinant SerB653 phosphatase expressed in Escherichia coli BL21 using phosphoserine as substrate at 50 uM after 1 hr by malachite green colorimetric assay
Hi! Could you send only the number? It should be in %, unit omitted.

Sample records with inhibition:
# smiles input, unit tag, inhibition
data = [
    ("COc1cccc(Nc2[nH]c3c(Cl)c(Cl)ccc3c(=O)c2C(C)=O)c1", "%", 3.6),
    ("CC(=O)c1c(Nc2ccc(F)cc2F)[nH]c2c(F)ccc(F)c2c1=O", "%", 0),
    ("CC(C)C(=O)c1c(Nc2cc(Cl)cc(Cl)c2)[nH]c2c(Cl)ccc([N+](=O)[O-])c2c1=O", "%", 99.1),
    ("CC(C)C(=O)c1c(Nc2cccc(Cl)c2Cl)[nH]c2c(Cl)ccc([N+](=O)[O-])c2c1=O", "%", 96.3),
    ("O=C(c1c(Nc2cc(Cl)ccc2Cl)[nH]c2c(Cl)ccc([N+](=O)[O-])c2c1=O)C1CC1", "%", 98.2),
    ("CC(=O)c1c(Nc2cc(C(F)(F)F)cc(C(F)(F)F)c2)[nH]c2c(Cl)ccc(F)c2c1=O", "%", 98.5),
]

**Query** Answer with the recorded inhibition for the compound listed here: CC(=O)c1c(Nc2ccc(F)cc2F)[nH]c2c(Cl)ccc(F)c2c1=O
**Result** 9.1

**Query** Answer with the recorded inhibition for the compound listed here: CC(=O)c1c(Nc2ccc(Br)cc2)[nH]c2c(F)ccc(F)c2c1=O
**Result** 1.4

**Query** Answer with the recorded inhibition for the compound listed here: CC(=O)c1c(Nc2ccc(C)cc2)[nH]c2c([N+](=O)[O-])cc(Cl)cc2c1=O
**Result** 2.2

**Query** Answer with the recorded inhibition for the compound listed here: CC(=O)c1c(Nc2cc(Cl)cc(Cl)c2)[nH]c2c(Cl)ccc([N+](=O)[O-])c2c1=O
**Result** 99.3

**Query** Answer with the recorded inhibition for the compound listed here: CC(C)C(=O)c1c(Nc2ccc(F)cc2F)[nH]c2c(Cl)ccc([N+](=O)[O-])c2c1=O
**Result** 80.1

**Query** Answer with the recorded inhibition for the compound listed here: CC(=O)c1c(Nc2ccc(F)cc2)[nH]c2c([N+](=O)[O-])cc(Cl)cc2c1=O
**Result** 9.3

**Query** Answer with the recorded inhibition for the compound listed here: CCC(=O)c1c(Nc2cc(Cl)cc(Cl)c2)[nH]c2c(Cl)ccc([N+](=O)[O-])c2c1=O
**Result** 97.4

**Query** Answer with the recorded inhibition for the compound listed here: CC(=O)c1c(Nc2ccc(Cl)cc2F)[nH]c2c(Cl)ccc(C)c2c1=O
**Result** 24.5

**Query** Answer with the recorded inhibition for the compound listed here: CC(C)CC(=O)c1c(Nc2cc(Cl)cc(Cl)c2)[nH]c2c(Cl)ccc([N+](=O)[O-])c2c1=O
**Result** 99.1

**Query** Answer with the recorded inhibition for the compound listed here: CC(=O)c1c(Nc2ccc(F)cc2F)[nH]c2c(C)ccc(Cl)c2c1=O
**Result** 2.3

**Query** Answer with the recorded inhibition for the compound listed here: CC(=O)c1c(Nc2ccc(Cl)cc2Cl)[nH]c2c(C(F)(F)F)cccc2c1=O
**Result** 96.3

**Query** Answer with the recorded inhibition for the compound listed here: CC(C)CC(=O)c1c(Nc2ccc(Cl)cc2Cl)[nH]c2c(Cl)ccc([N+](=O)[O-])c2c1=O
**Result** 97.8

**Query** Answer with the recorded inhibition for the compound listed here: CC(C)CC(=O)c1c(Nc2ccc(Cl)cc2F)[nH]c2c(Cl)ccc([N+](=O)[O-])c2c1=O
**Result** 97.3
